Origin of the recorded values: paper PMC7686291

Each record here notes measured Emax.
target: serotonin transporters (SERT) (Rattus norvegicus, UniProt P31652); test: Transporter release assay, [3H]5-HT via SERT, rat brain synaptosomes; format: biochemical; settings: read-out: SERT release %Emax
Sequence (P31652 whole entry): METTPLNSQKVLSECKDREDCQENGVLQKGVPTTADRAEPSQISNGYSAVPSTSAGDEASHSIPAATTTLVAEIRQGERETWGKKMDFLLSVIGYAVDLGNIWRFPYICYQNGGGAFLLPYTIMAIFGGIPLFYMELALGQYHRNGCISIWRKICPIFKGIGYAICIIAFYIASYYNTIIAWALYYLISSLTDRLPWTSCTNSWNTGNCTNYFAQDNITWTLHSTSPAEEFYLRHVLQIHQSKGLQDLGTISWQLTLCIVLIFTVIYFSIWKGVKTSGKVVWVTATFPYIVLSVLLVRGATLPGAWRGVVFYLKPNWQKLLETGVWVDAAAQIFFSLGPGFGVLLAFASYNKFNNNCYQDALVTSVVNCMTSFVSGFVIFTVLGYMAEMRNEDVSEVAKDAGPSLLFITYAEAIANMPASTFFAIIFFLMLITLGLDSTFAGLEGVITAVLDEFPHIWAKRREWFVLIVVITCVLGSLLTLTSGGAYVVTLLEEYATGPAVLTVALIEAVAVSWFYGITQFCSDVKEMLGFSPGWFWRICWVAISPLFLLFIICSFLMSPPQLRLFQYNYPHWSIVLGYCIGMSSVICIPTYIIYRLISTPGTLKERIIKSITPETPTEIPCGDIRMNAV
Counter-ions that a name gives are not always drawn.
Unit % implied. Number only.

Give Emax; test system serotonin transporters (SERT) (Rattus norvegicus, UniProt P31652); compound CC(N)Cc1ccc2c(c1)OCO2 (racemic) [MDA, (±)-3,4-Methylenedioxyamphetamine HCl, reference compound]
109

Give Emax; test system serotonin transporters (SERT) (Rattus norvegicus, UniProt P31652); compound CC(N)Cc1ccc2occc2c1 (stereo not shown) [5-APB, 1-(1-Benzofuran-5-yl)propan-2-amine]
104

Give Emax; test system serotonin transporters (SERT) (Rattus norvegicus, UniProt P31652); compound CNC(C)Cc1ccc2c(c1)OCO2 (racemic) [MDMA, reference compound]
104

Give Emax; test system serotonin transporters (SERT) (Rattus norvegicus, UniProt P31652); compound CC(N)Cc1ccc2ccoc2c1 (stereo not shown) [6-APB, 1-(1-benzofuran-6-yl)propan-2-amine]
100

====

molecular target: norepinephrine transporters (NET) (Rattus norvegicus, UniProt Q63380); assay: Transporter release assay, [3H]MPP+ via NET, rat brain synaptosomes; assay type: biochemical; details: read-out: NET release %Emax
Sequence (Q63380 1-617): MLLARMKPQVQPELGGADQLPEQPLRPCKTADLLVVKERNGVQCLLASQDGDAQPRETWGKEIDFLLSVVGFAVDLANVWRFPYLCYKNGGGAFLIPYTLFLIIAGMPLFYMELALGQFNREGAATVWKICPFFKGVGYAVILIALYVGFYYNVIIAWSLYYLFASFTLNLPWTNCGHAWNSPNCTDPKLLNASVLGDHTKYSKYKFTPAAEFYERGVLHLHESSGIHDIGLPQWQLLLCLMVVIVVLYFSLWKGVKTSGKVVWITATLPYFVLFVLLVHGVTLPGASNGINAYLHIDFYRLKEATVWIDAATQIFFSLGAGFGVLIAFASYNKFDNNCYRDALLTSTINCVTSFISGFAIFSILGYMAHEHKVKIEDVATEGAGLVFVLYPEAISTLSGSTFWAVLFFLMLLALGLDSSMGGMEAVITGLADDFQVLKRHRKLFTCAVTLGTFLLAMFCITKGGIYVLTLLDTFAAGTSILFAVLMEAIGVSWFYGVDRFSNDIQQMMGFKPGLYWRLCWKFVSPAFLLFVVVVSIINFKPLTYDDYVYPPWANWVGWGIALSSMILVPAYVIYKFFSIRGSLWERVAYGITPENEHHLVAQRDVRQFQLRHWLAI
Where a name gives a salt, the structure may show the parent alone.
Each record here notes measured Emax.
Unit % implied. Number only.

Solved entries (count: 3):
[
  {
    "compound": "CC(N)Cc1ccc2c(c1)OCO2 (racemic) [MDA, (±)-3,4-Methylenedioxyamphetamine HCl, reference compound]",
    "readout_unit": "%",
    "Emax": 91
  },
  {
    "compound": "CC(N)Cc1ccc2occc2c1 (stereo not shown)",
    "readout_unit": "%",
    "Emax": 103
  },
  {
    "compound": "CC(N)Cc1ccc2ccoc2c1 (stereo not shown)",
    "readout_unit": "%",
    "Emax": 98
  }
]

Look up and state reported Emax for CNC(C)Cc1ccc2c(c1)OCO2 (racemic) [MDMA, reference compound]
99

====

biological target: serotonin transporters (SERT) (Rattus norvegicus, UniProt P31652); test: Transporter release assay, [3H]5-HT via SERT, rat brain synaptosomes
Counter-ions that a name gives are not always drawn.
Each record here notes measured EC50.
Unit µM implied. Number only.

Solved entries (count: 3):
[
  {
    "molecule": "CC(N)Cc1ccc2occc2c1 (stereo not shown) [5-APB, 1-(1-Benzofuran-5-yl)propan-2-amine]",
    "test_readout": "EC50",
    "readout_unit": "µM",
    "reported_result": 0.019
  },
  {
    "molecule": "CC(N)Cc1ccc2ccoc2c1 (stereo not shown) [6-APB, 1-(1-benzofuran-6-yl)propan-2-amine]",
    "test_readout": "EC50",
    "readout_unit": "µM",
    "reported_result": 0.036
  },
  {
    "molecule": "CC(N)Cc1ccc2c(c1)OCO2 (racemic) [MDA, (±)-3,4-Methylenedioxyamphetamine HCl, reference compound]",
    "test_readout": "EC50",
    "readout_unit": "µM",
    "reported_result": 0.162
  }
]

Look up and state reported EC50 for CNC(C)Cc1ccc2c(c1)OCO2 (racemic) [MDMA, reference compound]
0.085

====

target: dopamine transporters (DAT) (Rattus norvegicus, UniProt P23977); experiment: Transporter release assay, [3H]MPP+ via DAT, rat brain synaptosomes; format: biochemical; conditions: read-out: DAT release %Emax
Sequence (P23977 whole entry): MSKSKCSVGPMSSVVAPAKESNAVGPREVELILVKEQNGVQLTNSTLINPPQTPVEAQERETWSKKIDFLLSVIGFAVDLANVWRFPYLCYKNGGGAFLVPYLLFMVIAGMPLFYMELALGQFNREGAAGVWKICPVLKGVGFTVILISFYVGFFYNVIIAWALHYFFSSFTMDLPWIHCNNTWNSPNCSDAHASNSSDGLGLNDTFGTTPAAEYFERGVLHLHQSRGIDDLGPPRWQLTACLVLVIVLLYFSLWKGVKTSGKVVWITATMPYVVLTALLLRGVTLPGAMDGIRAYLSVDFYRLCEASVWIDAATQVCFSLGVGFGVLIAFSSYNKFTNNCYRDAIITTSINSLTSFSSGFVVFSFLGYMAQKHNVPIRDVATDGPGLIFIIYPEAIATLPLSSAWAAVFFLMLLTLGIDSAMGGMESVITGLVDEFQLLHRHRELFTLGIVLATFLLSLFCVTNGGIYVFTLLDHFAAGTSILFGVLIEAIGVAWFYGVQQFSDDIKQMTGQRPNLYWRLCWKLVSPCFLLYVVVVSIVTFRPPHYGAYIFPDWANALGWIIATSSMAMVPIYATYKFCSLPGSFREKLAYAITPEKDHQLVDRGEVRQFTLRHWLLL
Structures can show the parent of a compound that is named as a salt.
test_readout: Emax

[
  {
    "molecule": "CC(N)Cc1ccc2occc2c1 (stereo not shown)",
    "test_readout": "Emax",
    "reported_result": "103%"
  },
  {
    "molecule": "CC(N)Cc1ccc2ccoc2c1 (stereo not shown)",
    "test_readout": "Emax",
    "reported_result": "101%"
  },
  {
    "molecule": "CC(N)Cc1ccc2c(c1)OCO2 (racemic) [MDA, (±)-3,4-Methylenedioxyamphetamine HCl, reference compound]",
    "test_readout": "Emax",
    "reported_result": "104%"
  }
]

Then there is this molecule:
Look up and state reported Emax for CNC(C)Cc1ccc2c(c1)OCO2 (racemic) [MDMA, reference compound]
101%

====

molecular target: dopamine transporters (DAT) (Rattus norvegicus, UniProt P23977); assay: Transporter release assay, [3H]MPP+ via DAT, rat brain synaptosomes
Structures can show the parent of a compound that is named as a salt.
Each record here notes measured pEC50.
For clarity, pEC50 is expressed as the negative log10 of concentration in mol/L.

Solved entries (count: 3):
[
  {
    "compound": "CC(N)Cc1ccc2ccoc2c1 (stereo not shown)",
    "pEC50": 8.00
  },
  {
    "compound": "CC(N)Cc1ccc2occc2c1 (stereo not shown)",
    "pEC50": 7.51
  },
  {
    "compound": "CC(N)Cc1ccc2c(c1)OCO2 (racemic) [MDA, (±)-3,4-Methylenedioxyamphetamine HCl, reference compound]",
    "pEC50": 6.97
  }
]

Then there is this compound:
Look up and state reported pEC50 for CNC(C)Cc1ccc2c(c1)OCO2 (racemic) [MDMA, reference compound]
6.92

====

Each record here notes measured EC50.
biological target: UniProt Q63380; experiment: Transporter release assay, [3H]MPP+ via NET, rat brain synaptosomes
Structures can show the parent of a compound that is named as a salt.
Unit nM implied. Number only.

[
  {
    "compound": "CC(N)Cc1ccc2ccoc2c1 (stereo not shown) [6-APB, 1-(1-benzofuran-6-yl)propan-2-amine]",
    "test_readout": "EC50",
    "reported_result": 14
  }
]

Look up and state reported EC50 for CC(N)Cc1ccc2occc2c1 (stereo not shown) [5-APB, 1-(1-Benzofuran-5-yl)propan-2-amine]
21

Look up and state reported EC50 for CNC(C)Cc1ccc2c(c1)OCO2 (racemic) [MDMA, reference compound]
90

Look up and state reported EC50 for CC(N)Cc1ccc2c(c1)OCO2 (racemic) [MDA, (±)-3,4-Methylenedioxyamphetamine HCl, reference compound]
47
